Target: P-glycoprotein (PGP) (Cricetulus griseus, UniProt P21448)
Sequence (P21448 whole entry): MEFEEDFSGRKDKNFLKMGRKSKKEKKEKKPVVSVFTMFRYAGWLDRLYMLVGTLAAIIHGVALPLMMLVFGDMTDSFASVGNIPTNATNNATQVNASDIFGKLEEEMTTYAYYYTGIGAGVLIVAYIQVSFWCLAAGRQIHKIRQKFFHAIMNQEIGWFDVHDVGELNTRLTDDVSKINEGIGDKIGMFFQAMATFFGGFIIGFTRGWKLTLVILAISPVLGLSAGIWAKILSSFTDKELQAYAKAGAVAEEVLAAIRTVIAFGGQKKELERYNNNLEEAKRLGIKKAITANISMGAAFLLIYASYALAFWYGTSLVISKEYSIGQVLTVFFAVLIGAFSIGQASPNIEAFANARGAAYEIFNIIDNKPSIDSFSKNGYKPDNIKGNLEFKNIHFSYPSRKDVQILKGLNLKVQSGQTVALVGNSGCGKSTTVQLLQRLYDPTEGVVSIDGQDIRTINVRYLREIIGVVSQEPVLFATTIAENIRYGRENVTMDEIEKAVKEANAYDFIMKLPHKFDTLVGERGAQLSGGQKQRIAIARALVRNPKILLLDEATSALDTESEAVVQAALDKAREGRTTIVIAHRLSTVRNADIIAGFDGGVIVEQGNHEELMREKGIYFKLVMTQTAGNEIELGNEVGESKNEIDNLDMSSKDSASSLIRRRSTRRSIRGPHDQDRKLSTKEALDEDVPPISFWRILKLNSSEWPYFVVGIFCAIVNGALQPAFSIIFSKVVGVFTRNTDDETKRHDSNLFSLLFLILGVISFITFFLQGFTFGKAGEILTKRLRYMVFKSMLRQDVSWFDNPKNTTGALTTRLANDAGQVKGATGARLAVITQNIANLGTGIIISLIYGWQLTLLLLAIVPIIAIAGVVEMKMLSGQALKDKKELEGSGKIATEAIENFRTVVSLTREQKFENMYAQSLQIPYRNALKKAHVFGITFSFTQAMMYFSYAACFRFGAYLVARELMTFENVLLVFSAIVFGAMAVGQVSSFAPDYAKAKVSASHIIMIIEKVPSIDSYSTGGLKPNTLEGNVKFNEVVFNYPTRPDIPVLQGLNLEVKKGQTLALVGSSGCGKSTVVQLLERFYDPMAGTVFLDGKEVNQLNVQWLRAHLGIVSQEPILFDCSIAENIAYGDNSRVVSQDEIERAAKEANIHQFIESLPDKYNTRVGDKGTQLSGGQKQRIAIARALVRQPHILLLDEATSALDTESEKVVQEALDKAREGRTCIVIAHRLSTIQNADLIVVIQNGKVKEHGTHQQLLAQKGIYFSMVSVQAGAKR
OUTCOME MEASURE: Kd

INSERT INTO assay_data (smiles_structure, assayed_target, measured_result) VALUES
  ('CCCCCCCCCCCCCCCCOP(=O)([O-])OCC[N+](C)(C)C', 'P-glycoprotein (PGP) (Cricetulus griseus, UniProt P21448)', '~7 µM');
